These entries and their values trace back to patent US8389557B2.

# targetSystem: Axl (Homo sapiens)
# Construct: endogenous in cells; host or cells: HeLa cells
# Sequence (P30530 26-894): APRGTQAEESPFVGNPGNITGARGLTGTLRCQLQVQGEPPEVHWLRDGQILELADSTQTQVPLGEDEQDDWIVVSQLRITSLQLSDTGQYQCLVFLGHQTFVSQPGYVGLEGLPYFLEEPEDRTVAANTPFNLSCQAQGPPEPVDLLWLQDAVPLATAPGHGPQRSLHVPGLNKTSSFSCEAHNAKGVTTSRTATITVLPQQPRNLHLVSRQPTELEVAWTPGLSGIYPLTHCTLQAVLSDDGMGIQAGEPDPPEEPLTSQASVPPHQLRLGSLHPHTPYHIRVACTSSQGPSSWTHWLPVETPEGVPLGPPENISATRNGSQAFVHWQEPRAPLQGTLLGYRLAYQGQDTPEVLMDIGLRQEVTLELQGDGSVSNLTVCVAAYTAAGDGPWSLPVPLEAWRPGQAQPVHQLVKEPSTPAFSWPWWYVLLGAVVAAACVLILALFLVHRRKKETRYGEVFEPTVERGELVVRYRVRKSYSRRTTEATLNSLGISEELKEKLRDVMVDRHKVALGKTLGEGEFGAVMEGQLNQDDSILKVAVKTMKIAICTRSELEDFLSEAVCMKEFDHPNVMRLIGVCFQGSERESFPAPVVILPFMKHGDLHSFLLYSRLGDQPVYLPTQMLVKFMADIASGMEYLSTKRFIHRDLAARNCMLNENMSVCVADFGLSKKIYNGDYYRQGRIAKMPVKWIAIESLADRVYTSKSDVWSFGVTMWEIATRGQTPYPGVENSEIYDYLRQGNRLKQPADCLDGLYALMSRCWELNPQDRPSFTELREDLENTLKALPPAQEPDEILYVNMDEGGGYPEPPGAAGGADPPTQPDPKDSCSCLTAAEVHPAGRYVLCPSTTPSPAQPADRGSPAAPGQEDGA
# testSummary: Phospho-Akt in-cell Western assay (inhibition of Axl activity)
# Assay type: cell-based
# setupConditions: Table 2; Hela cells, Axl antibody cross-linking stimulation, phospho-Akt chemiluminescence
pIC50: −log10 of the molar value.
assayReadout: pIC50

-- ask Give the measured pIC50 of CC(C)(C)Oc1ccc(C(=O)n2nc(N)nc2Nc2ccc(N3CCOCC3)cc2)cc1 .
-- reply < 4.70

-- ask And the next one, CC(C)Oc1ccc(C(=O)n2nc(N)nc2Nc2ccc(OCCN3CCCC3)cc2)cc1 ?
-- reply 5.00 to 6.00

-- ask One more molecule: Nc1nc(Nc2ccc(N3CCOCC3)cc2)n(C(=O)c2cccc(Cl)c2)n1
-- reply < 4.70

-- ask Param item: CC(C)Oc1ccc(C(=O)n2nc(N)nc2Nc2ccc(N3CCN(C)CC3)cc2)cc1
-- reply 5.00 to 6.00
